# Lookup of reported pIC50 keyed by entry
measurement.target: human adenosine A2b receptor (Homo sapiens (Human), UniProt P29275)
Sequence (P29275 whole entry): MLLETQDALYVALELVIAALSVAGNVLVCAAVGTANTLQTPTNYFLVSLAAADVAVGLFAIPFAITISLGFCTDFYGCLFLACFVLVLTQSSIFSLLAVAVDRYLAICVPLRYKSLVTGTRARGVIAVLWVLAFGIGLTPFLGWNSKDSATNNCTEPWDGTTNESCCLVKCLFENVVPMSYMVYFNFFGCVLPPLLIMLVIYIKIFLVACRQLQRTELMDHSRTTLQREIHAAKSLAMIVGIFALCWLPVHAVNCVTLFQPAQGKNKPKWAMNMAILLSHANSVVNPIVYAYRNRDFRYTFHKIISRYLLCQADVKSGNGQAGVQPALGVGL
protocol.description: Cellular in vitro reporter gene test for A2b receptor activity (CHO-K1, CRE-luciferase, NECA stimulation)
Assay type: cell-based
recorded.conditions: recombinant CHO-K1 cell line, CRE-luciferase reporter, antagonism of EC50 concentration of NECA; in some cases means of several determinations, rounded to two significant figures; read-out: A2b receptor IC50
Reminder that pIC50 means the negative base-10 logarithm of the concentration expressed in mol/L.

Completed entries (count: 3):
Prompt: # query: pIC50 | item CCn1c(=O)c2c(C)c(Cn3cc[nH]c3=O)sc2n(CC2CCCO2)c1=O (single isomer, unassigned) [Example 244] | system: human adenosine A2b receptor (Homo sapiens (Human), UniProt P29275)
Response: 7.89

Prompt: Notebook entry, human adenosine A2b receptor (Homo sapiens (Human), UniProt P29275) assay: pIC50 of CCn1c(=O)c2c(C)c(CN3CCNC3=O)sc2n(C)c1=O = ?
Response: 8.03

Prompt: What pIC50 appears in the records for this compound with human adenosine A2b receptor (Homo sapiens (Human), UniProt P29275)? COCCn1c(=O)n(C(C)C(F)(F)F)c(=O)c2c(C)c(CN3CCNC3=O)sc21 (racemic) [Example 410]
Response: 7.92

---
Prompt: Could you share what pIC50 was measured for CCn1c(=O)c2c(C)c(CN3CCNC3=S)sc2n(CCOC(C)C)c1=O , tested on human adenosine A2b receptor (Homo sapiens (Human), UniProt P29275)?
Response: 7.92

Prompt: Lab request: please report pIC50 under test system human adenosine A2b receptor (Homo sapiens (Human), UniProt P29275) for COC(C)Cn1c(=O)c2c(C)c(CN3CCNC(=O)C3=O)sc2n(CCC(F)(F)F)c1=O (racemic) [Example 493]
Response: 7.96

Prompt: Test system human adenosine A2b receptor (Homo sapiens (Human), UniProt P29275); read-out pIC50; what value for Cc1c(CN2CCNC2=S)sc2c1c(=O)n(CC(F)(F)F)c(=O)n2CCCF ?
Response: 8.15

Prompt: API: value(readout=pIC50, system=human adenosine A2b receptor (Homo sapiens (Human), UniProt P29275)) for record CCN1CCN(Cc2sc3c(c2C)c(=O)n(CCc2ccccc2)c(=O)n3CCOC)C1=O
Response: 7.96

Prompt: Entry CCOCCn1c(=O)n(CC)c(=O)c2c(C)c(CN3CCNC3=S)sc21 , system human adenosine A2b receptor (Homo sapiens (Human), UniProt P29275): what pIC50 was measured?
Response: 7.96
